- target_or_test_system: T1, mouse PD-L1 on CHO cells that stably expressed mouse PD-L1 (mouse, UniProt Q9EP73 19-290)
- T1 construct: whole, on cells; also called CHO cells expressing mouse PD-L1
- T1 sequence (Q9EP73 19-290): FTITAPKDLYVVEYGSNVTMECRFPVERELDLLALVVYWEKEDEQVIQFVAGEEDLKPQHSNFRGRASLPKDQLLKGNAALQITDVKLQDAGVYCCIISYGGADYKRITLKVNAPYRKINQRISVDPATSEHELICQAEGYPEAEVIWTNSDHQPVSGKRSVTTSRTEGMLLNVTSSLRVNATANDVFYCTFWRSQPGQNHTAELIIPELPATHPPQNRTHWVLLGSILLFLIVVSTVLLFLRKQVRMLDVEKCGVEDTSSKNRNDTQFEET
- assay_summary: flow cytometry on CHO cells stably expressing mouse PD-L1, anti-human IgG-Fc DyLight 650 detection
reported_metric: EC50 (read off the curve)

Exam item: Please give the measured EC50 (read off the curve) for this binder: PD-L1 antibody YN-036 (antibody, human IgG1, lambda, V domains shown, full-length IgG1,lambda) VH: QVQLVQSGAEVKKPGSSVKVSCKASRGPFSTYAISWVRQAPGQGLEWMGRIIPILGIANYAQKFQGRVTITADKSTSTAYMELSSLRSEDTAVYYCARTMGEYSYGNYDYWGQGTLVTVSS VL: QSALTQPASVSGSPGQSITISCTGTVSEVGGYNEVSWYQQHPGKAPKLMIYGNSNRPSGVSNRFSGSKSGNTASLTISGLQAEDEADYYCQSYDSSLSGTVFGGGTKLTVLG
Marked response: ~4 nM

Exam item: Do the same for PD-L1 antibody YN-039 (antibody, human IgG1, lambda, V domains shown, full-length IgG1,lambda) VH: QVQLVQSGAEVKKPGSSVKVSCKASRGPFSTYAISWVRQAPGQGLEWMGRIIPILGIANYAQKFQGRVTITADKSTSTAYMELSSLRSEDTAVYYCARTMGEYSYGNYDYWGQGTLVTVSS VL: QSALTQPASVSGSPGQSITISCTGTVSDVGGYNEVSWYQQHPGKAPKLMIYENSIRPSGVSHRFSGSKSGNTASLTISGLQAEDEADYYCQSYDSSLSGTVFGGGTKLTVLG please
Marked response: ~6 nM

Exam item: Again, but for PD-L1 antibody YN-038 (antibody, human IgG1, lambda, V domains shown, full-length IgG1,lambda) VH: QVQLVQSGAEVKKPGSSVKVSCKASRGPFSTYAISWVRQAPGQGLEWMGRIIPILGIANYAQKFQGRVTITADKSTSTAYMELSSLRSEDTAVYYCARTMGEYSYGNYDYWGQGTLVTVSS VL: QSALTQPASVSGSPGQSITISCTGTRSDVGGYNEVSWYQQHPGKAPKLMIYENSIRPSGVSHRFSGSKSGNTASLTISGLQAEDEADYYCQSYDSSLSGTVFGGGTKLTVLG
Marked response: ~6 nM
